Molecular target: Nav1.7 sodium channels (human SCN9A gene) (Homo sapiens (Human), UniProt Q15858)
Sequence (Q15858 whole entry): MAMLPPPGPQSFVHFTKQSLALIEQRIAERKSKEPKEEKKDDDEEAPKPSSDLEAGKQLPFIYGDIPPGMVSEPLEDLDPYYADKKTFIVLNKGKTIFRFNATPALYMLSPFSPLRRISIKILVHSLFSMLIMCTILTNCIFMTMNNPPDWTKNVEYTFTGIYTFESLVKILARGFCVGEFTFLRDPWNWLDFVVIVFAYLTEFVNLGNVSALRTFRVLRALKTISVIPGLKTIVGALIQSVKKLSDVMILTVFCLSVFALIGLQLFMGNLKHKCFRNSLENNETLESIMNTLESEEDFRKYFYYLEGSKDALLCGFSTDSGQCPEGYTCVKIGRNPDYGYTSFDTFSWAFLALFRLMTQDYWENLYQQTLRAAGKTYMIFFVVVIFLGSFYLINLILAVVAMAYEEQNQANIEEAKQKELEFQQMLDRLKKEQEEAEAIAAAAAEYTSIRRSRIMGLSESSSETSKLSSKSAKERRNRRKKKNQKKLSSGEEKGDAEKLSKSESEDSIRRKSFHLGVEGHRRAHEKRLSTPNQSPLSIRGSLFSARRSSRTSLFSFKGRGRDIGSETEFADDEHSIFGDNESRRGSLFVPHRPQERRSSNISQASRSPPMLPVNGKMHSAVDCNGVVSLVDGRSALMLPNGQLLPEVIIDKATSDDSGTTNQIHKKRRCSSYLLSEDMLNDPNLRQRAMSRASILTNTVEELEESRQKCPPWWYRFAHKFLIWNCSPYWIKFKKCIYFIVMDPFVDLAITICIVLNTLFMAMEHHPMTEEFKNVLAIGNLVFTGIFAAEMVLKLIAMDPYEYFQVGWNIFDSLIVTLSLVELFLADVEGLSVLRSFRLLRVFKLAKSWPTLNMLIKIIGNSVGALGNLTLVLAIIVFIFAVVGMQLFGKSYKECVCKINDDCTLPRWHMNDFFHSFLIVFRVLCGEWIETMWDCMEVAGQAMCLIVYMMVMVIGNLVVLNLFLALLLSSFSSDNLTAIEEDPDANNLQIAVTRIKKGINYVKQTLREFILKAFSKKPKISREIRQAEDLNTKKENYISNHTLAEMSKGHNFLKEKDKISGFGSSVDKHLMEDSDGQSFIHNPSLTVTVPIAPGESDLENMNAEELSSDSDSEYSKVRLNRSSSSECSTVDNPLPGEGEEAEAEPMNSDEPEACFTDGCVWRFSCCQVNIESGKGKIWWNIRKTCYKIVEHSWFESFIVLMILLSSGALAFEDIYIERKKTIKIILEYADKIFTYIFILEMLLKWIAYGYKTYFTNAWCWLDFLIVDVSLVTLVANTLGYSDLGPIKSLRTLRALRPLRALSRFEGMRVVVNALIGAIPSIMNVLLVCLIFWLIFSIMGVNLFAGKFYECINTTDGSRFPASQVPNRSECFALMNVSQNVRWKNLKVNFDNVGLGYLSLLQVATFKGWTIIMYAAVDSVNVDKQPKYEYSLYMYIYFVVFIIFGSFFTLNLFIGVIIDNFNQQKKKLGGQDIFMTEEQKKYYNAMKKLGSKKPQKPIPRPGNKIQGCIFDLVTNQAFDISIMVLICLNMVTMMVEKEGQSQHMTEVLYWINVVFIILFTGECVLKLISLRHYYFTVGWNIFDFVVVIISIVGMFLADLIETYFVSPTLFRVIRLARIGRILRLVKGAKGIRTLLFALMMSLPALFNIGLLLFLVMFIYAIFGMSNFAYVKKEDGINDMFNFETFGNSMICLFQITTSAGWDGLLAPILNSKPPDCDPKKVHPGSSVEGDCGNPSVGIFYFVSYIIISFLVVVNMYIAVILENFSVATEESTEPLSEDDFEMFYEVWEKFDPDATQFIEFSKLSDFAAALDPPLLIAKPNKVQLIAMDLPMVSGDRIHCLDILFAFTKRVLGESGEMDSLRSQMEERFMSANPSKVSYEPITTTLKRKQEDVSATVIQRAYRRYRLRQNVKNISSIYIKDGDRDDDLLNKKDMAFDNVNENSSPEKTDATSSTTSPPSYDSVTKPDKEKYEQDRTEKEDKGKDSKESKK
Test: Automated patch clamp (IonWorks Barracuda) of Nav1.7 stably expressed in CHO cells
Format: cell-based
Details: tonic (resting) state block, CHO cells; read-out: Tonic state IC50
pIC50: −log10 of the molar value.
Measured pIC50 of individual entries

CN(CCOCCNc1cnc(-c2cccc(Cl)c2Cl)c(N)n1)CC(N)=O    < 3.70

Can you look up the measured pIC50 of "CC(C)(C)OC(=O)COCCN1CCN(c2nnc(-c3cccc(Cl)c3Cl)c(N)n2)CC1" for me?
4.06

Can you look up the measured pIC50 of "COCCOCCN(C)CCN(C)c1nnc(-c2cccc(Cl)c2Cl)c(N)n1" for me?
4.20

Can you look up the measured pIC50 of COC[C@@H](O)CN1CCC12CCCN(c1nnc(-c3cccc(Cl)c3Cl)c(N)n1)C2 (some centres unmarked) for me?
3.83

Can you look up the measured pIC50 of "CC(=O)NCCOCCNc1nnc(-c2cccc(Cl)c2Cl)c(N)n1" for me?
< 3.70

Can you look up the measured pIC50 of Nc1nc(N2CCN(CC(O)CO)CC2)nnc1-c1cccc(Cl)c1Cl (centres unmarked) for me?
< 3.70

Can you look up the measured pIC50 of "Nc1nc(N2CCN(C[C@H](O)COC3CCC3)CC2)nnc1-c1cccc(Cl)c1Cl" for me?
3.72

Can you look up the measured pIC50 of "COC[C@@H](O)CN1CCN(c2nnc(-c3cccc(Cl)c3Cl)c(N)n2)[C@H](CO)C1" for me?
< 3.70

Can you look up the measured pIC50 of "COCCOCCOCC(=O)N1CCC(Nc2nnc(-c3cccc(Cl)c3Cl)c(N)n2)CC1" for me?
< 3.70

Can you look up the measured pIC50 of COCCOCCOCC(O)CNc1nnc(-c2cccc(Cl)c2Cl)c(N)n1 (centres unmarked) for me?
< 3.70

Can you look up the measured pIC50 of "COC[C@@H](O)CN[C@@H]1CCN(c2nnc(-c3cccc(Cl)c3Cl)c(N)n2)C1" for me?
< 3.70

Can you look up the measured pIC50 of "Nc1nc(N2CCN(C[C@H](O)COCC3CC3)CC2)nnc1-c1cccc(Cl)c1Cl" for me?
3.77

Can you look up the measured pIC50 of C[S+]([O-])CCOCCNc1nnc(-c2cccc(Cl)c2Cl)c(N)n1 (centres unmarked) for me?
< 3.70

Can you look up the measured pIC50 of "CN1CCN(CCOCCNc2nnc(-c3cccc(Cl)c3Cl)c(N)n2)CC1" for me?
< 3.70

Can you look up the measured pIC50 of "COCCOCCOCCN1CCC(Nc2nnc(-c3cccc(Cl)c3Cl)c(N)n2)CC1" for me?
< 3.70

Can you look up the measured pIC50 of "Nc1nc(N2CCN(CCOCCO)CC2)nnc1-c1cccc(Cl)c1Cl" for me?
< 3.70

Can you look up the measured pIC50 of CC(CO)N1CCN(c2nnc(-c3cccc(Cl)c3Cl)c(N)n2)CC1 (centres unmarked) for me?
< 3.70
